The reported measurements were obtained from patent US20030207812A1.

biological target: CD45 (Homo sapiens); construct: incubating the cytosolic portion of CD45 with the compounds and p-nitrophenyl phosphate (pNPP); purchased BIOMOL (Plymouth Meeting, Pa.); experiment: Phosphatase assay using pNPP as substrate; assay type: biochemical
Sequence (P08575 599-1306 limits assumed): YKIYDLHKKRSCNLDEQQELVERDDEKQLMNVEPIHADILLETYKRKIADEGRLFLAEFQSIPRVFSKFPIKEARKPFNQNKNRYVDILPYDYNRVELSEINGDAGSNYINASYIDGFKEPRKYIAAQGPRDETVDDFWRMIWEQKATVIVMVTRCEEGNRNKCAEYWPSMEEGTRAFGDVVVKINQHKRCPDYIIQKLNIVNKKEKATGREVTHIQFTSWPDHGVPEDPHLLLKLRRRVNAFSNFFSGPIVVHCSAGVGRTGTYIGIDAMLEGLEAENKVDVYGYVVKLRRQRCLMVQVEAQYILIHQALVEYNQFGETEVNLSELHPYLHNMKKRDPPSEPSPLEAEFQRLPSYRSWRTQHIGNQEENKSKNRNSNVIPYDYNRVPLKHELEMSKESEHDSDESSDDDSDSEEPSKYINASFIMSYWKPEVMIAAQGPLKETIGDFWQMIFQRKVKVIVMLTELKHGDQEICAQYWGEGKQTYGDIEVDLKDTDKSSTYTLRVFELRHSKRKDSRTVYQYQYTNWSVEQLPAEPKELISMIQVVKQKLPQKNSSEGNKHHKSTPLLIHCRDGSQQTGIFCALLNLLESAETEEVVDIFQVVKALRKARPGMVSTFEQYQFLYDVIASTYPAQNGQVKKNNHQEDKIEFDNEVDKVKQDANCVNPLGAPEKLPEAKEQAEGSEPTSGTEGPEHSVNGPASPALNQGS
Where a SMILES comes first, the peptide text is derived from it. The star is where a group is joined. Phenanthrenequinone2carbonyl = O=C1C(=O)c2cc(C(=O)*)ccc2-c2ccccc21; 3Phenanthroyl(9,10-dioxo) = O=C1C(=O)c2ccc(C(=O)*)cc2-c2ccccc21
Readout Label: IC50

Please report the measured IC50 for N=C(N)NCCC[C@H](NC(=O)c1ccc2c(c1)C(=O)C(=O)c1ccccc1-2)C(=O)N[C@@H](CCC(=O)O)C(=O)N1CCC[C@H]1C(=O)N[C@@H](CCCNC(=N)N)C(=O)NCC(=O)O [Example 54] (Phenanthrenequinone2carbonyl-REPRG-OH)
900 nM

Please report the measured IC50 for NC(=O)CC[C@H](NC(=O)[C@@H]1CCCN1C(=O)[C@H](CCC(=O)O)NC(=O)CNC(=O)c1ccc2c(c1)-c1ccccc1C(=O)C2=O)C(=O)NCC(=O)O [Example 38] ({3Phenanthroyl(9,10-dioxo)}-GEPQG-OH)
700 nM

Please report the measured IC50 for NC(=O)CC[C@H](NC(=O)[C@@H]1CCCN1C(=O)[C@H](CCC(N)=O)NC(=O)CNC(=O)c1ccc2c(c1)-c1ccccc1C(=O)C2=O)C(=O)NCC(=O)O [Example 36] ({3Phenanthroyl(9,10-dioxo)}-GQPQG-OH)
1000 nM

Please report the measured IC50 for NC(=O)CC[C@H](NC(=O)c1ccc2c(c1)-c1ccccc1C(=O)C2=O)C(=O)N[C@@H](CCC(N)=O)C(=O)N1CCC[C@H]1C(=O)N[C@@H](CCC(N)=O)C(=O)NCC(=O)O [Example 37] ({3Phenanthroyl(9,10-dioxo)}-QQPQG-OH)
1100 nM

Please report the measured IC50 for NC(=O)CC[C@H](NC(=O)CNC(=O)c1ccc2c(c1)-c1ccccc1C(=O)C2=O)C(=O)N1CCC[C@H]1C(=O)N[C@@H](CCC(=O)O)C(=O)NCC(=O)O [Example 39] ({3Phenanthroyl(9,10-dioxo)}-GQPEG-OH)
700 nM

Please report the measured IC50 for NC(=O)CC[C@H](NC(=O)c1ccc2c(c1)-c1ccccc1C(=O)C2=O)C(=O)N[C@@H](CCC(N)=O)C(=O)N1CCC[C@H]1C(=O)N[C@@H](CCC(=O)O)C(=O)NCC(=O)O [Example 34] ({3Phenanthroyl(9,10-dioxo)}-QQPEG-OH)
900 nM
